Read-out: Broad substrate specificity ATP-binding cassette transporter ABCG2 (Homo sapiens) (UniProt Q9UNQ0)
Sequence (Q9UNQ0 whole entry, looked up): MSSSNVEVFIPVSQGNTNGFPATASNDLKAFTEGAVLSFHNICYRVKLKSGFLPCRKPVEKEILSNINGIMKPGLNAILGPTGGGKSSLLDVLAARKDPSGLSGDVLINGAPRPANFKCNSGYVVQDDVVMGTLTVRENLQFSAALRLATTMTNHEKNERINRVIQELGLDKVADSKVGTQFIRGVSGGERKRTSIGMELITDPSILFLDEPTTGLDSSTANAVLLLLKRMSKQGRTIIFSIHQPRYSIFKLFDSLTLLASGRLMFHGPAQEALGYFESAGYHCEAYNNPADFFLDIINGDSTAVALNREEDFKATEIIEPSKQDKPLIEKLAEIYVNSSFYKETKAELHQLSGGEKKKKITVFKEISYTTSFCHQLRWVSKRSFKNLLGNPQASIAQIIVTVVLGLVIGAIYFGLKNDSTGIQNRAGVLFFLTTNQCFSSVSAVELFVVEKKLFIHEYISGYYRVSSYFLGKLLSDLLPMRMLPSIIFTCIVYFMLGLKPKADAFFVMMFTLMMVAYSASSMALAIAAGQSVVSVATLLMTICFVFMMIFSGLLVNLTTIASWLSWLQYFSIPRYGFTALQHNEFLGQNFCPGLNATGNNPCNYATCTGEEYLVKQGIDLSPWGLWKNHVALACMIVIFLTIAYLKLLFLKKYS
Test Details: CLD_ABCG2_24hr: CellzDirect (CLD) Gene Expression Assay for ABC Transporter (ABCG2) at 24 hours (AID 2283685);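 for AC50: AC50 is for induction meaning signal gain over DMSO vehicle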
Experimental: CLD_24hr is a cell-based, multiplexed-readout assay that uses hepatocyte, a human liver primary cell, with measurements taken at 24 hours after chemical dosing in a 96-well plate.CLD_ABCG2_24hr is one of 16 assay component(s) measured or calculated from the CLD_24hr assay. […] Furthermore, this assay endpoint can be referred to as a primary readout. […]
Records with an inconclusive call do not appear. Active and inactive are the calls of the source. Rule for the calls: active = hit-call score of the fitted dose curve at least 0.9, where 1 is the maximum; inconclusive = response in the unintended direction; inactive = score below 0.9.
Parameter: AC50

Solved entries:
[
  {
    "Compound": "CC(=NC#N)N(C)Cc1ccc(Cl)nc1",
    "Assay Result": "inactive"
  },
  {
    "Compound": "CCCOCC(=Nc1ccc(Cl)cc1C(F)(F)F)n1ccnc1",
    "Assay Result": "20 µM (active)"
  },
  {
    "Compound": "CCCSP(=O)(OCC)Oc1ccc(Br)cc1Cl (configuration not stated)",
    "Assay Result": "inactive"
  },
  {
    "Compound": "CN(C)NC(=O)CCC(=O)O",
    "Assay Result": "inactive"
  },
  {
    "Compound": "Cc1nn(-c2cc(NS(C)(=O)=O)c(Cl)cc2Cl)c(=O)n1C(F)F",
    "Assay Result": "inactive"
  },
  {
    "Compound": "CC(C)=CC1C(C(=O)OCN2C(=O)C3=C(CCCC3)C2=O)C1(C)C (configuration not stated)",
    "Assay Result": "inactive"
  }
]

Data request: For FC(F)C(F)(F)OCC(Cn1cncn1)c1ccc(Cl)cc1Cl (configuration not stated) , what is its reported AC50?
Data returned: inactive
